- target_desc: G4-forming oligonucleotide Pf8 (d[(G3T2CA)3G3])
- assay_procedure: Native electrospray mass spectrometry, Pf8
- Format: binding, Plasmodium
- condition: 1:1 ligand:DNA complex; 100 mM TMAA, 1 mM KCl; read-out: Kd Pf8, stoichiometry 1 (Kd1)
- Experimental: Oligonucleotides were purchased in the lyophilized form from Eurogentec (RP-cartridge purification), and dissolved at 1 mM in pure water. […] The MS data were extracted using the IM-MS Browser (v. B.08.00; Agilent Technologies). […] The concentrations of all species (free DNA, free ligands, and complexes) and corresponding dissociation constants were determined as previously described.
Could you please report measured Kd for the items listed next?
Write it as a number; the unit µM goes unstated.

Query: Kd; subject: CN(C)CCCCNCc1cc(-c2ccccc2)c2ccc3c(-c4ccccc4)cc(CNCCCCN(C)C)nc3c2n1
3

Query: Kd; subject: CN(C)CCCCCNCc1cc(-c2ccccc2)c2ccc3c(-c4ccccc4)cc(CNCCCCCN(C)C)nc3c2n1
3

Query: Kd; subject: c1ccc(-c2cc(CNCCc3ccccn3)nc3c2ccc2c(-c4ccccc4)cc(CNCCc4ccccn4)nc23)cc1
83

Query: Kd; subject: c1ccc(-c2cc(CNCCCN3CCCC3)nc3c2ccc2c(-c4ccccc4)cc(CNCCCN4CCCC4)nc23)cc1
2

###

- target_desc: duplex-forming sequence DK66
- assay_procedure: Native electrospray mass spectrometry, DK66
- Assay type: binding
- condition: 1:1 ligand:DNA complex; 100 mM TMAA, 1 mM KCl; read-out: Kd DK66, stoichiometry 1 (Kd1)
Could you please report measured Kd for the items listed next?
Express the reported value numerically, then name its unit.

Query: Kd; subject: CN(C)CCCCCNCc1cc(-c2ccccc2)c2ccc3c(-c4ccccc4)cc(CNCCCCCN(C)C)nc3c2n1 [Compound 1d]
53 µM

Query: Kd; subject: CN(C)CCCCNCc1cc(-c2ccccc2)c2ccc3c(-c4ccccc4)cc(CNCCCCN(C)C)nc3c2n1 [Compound 1c]
110 µM

Query: Kd; subject: c1ccc(-c2cc(CNCCCN3CCCC3)nc3c2ccc2c(-c4ccccc4)cc(CNCCCN4CCCC4)nc23)cc1 [Compound 1l]
55 µM

###

- assay_procedure: Cytotoxicity evaluation, MTT assay
- Assay type: cell-based, human
- condition: human
readout: CC50 at 72 h (µM)
Write it as a number; the unit µM goes unstated.

Query: CC50 at 72 h; subject: CN(C)CCCCCNCc1cc(-c2ccccc2)c2ccc3c(-c4ccccc4)cc(CNCCCCCN(C)C)nc3c2n1
3.35

Query: CC50 at 72 h; subject: CN(C)CCCCNCc1cc(-c2ccccc2)c2ccc3c(-c4ccccc4)cc(CNCCCCN(C)C)nc3c2n1
10.4

Query: CC50 at 72 h; subject: c1ccc(-c2cc(CNCCCN3CCCC3)nc3c2ccc2c(-c4ccccc4)cc(CNCCCN4CCCC4)nc23)cc1
15.2

Query: CC50 at 72 h; subject: c1ccc(-c2cc(CNCCCc3ccncc3)nc3c2ccc2c(-c4ccccc4)cc(CNCCCc4ccncc4)nc23)cc1
3.04

Query: CC50 at 72 h; subject: c1ccc(-c2cc(CNCCc3cccnc3)nc3c2ccc2c(-c4ccccc4)cc(CNCCc4cccnc4)nc23)cc1
3.1

Query: CC50 at 72 h; subject: c1ccc(-c2cc(CNCCCN3CCCCC3)nc3c2ccc2c(-c4ccccc4)cc(CNCCCN4CCCCC4)nc23)cc1
4.29

Query: CC50 at 72 h; subject: c1ccc(-c2cc(CNCCN3CCOCC3)nc3c2ccc2c(-c4ccccc4)cc(CNCCN4CCOCC4)nc23)cc1
5.89

Query: CC50 at 72 h; subject: CN1CCN(CCCNCc2cc(-c3ccccc3)c3ccc4c(-c5ccccc5)cc(CNCCCN5CCN(C)CC5)nc4c3n2)CC1
8.62
